Source listed as paper PMC11079029.

Below, each entry is listed with its recorded Kd.
assay_system: PRPF40A WW12 (tandem WW domains, residues 141–236) (Homo sapiens, UniProt O75400)
Construct: WW12 141–236, WW12long 141–248, and N-ext-WW12 56–236; 6xHis-TEV site (N, cleaved yes); made in house; host or cells: Escherichia coli BL21(DE3)
experiment_description: ITC of PRPF40A WW12 with GB1-tagged proline-rich peptides and constructs
Assay type: binding
condition_description: ITC, 25 °C, 20 mM sodium phosphate pH 6.5, 100 mM NaCl; GB1-tagged polyproline or SF1 16-mer peptide in the cell, WW tandem in the syringe; one-site model, apparent Kd; average of at least duplicates; read-out: Kd
Text: PRPF40A isoform 1 sequences (N-ter 1–310, WW12short 141–223, WW12 141–236, WW12long 141–248, and N-ext-WW12 56–236) were amplified from a purchased DNA fragment (IDT) and cloned using NcoI and KpnI restriction sites into a pETM11 vector encoding 6xHis and TEV cleavage site as a N-terminal tag. […]
Please give a number only; it is taken to be in µM.

Below: 3 sequences and their reported Kd.
> print(dat)
                           residue.sequence                              assay.system  unit.abbrev  quantitative.readout
1  MPPFGMPPAPPPPPPQ [SF1_623–638, GB1-tagged 16-mer from the SF1 C-terminal region]  PRPF40A WW12 (tandem WW domains, residues 141–236) (Homo sapiens, UniProt O75400)           µM                  23.3
2  MQPPPPPMNQGPHPPG [SF1_425–440, GB1-tagged 16-mer from the SF1 C-terminal region]  PRPF40A WW12 (tandem WW domains, residues 141–236) (Homo sapiens, UniProt O75400)           µM                  20.2
3  MYAPPPPPPPPMDPSN [SF1_596–611, GB1-tagged 16-mer from the SF1 C-terminal region]  PRPF40A WW12 (tandem WW domains, residues 141–236) (Homo sapiens, UniProt O75400)           µM                  65.9

Query string: Looking for the measured Kd of MPPPPMGMMPPPPPPP [SF1_470–485] , can you help?
Result string: 13.9

Query string: Returns the measured Kd for the input sequence. Input: MPPPPPPPSGQPPPPP [SF1_478–493, GB1-tagged 16-mer from the SF1 C-terminal region]
Result string: 9.59

###

assay_system: PRPF40A WW12 (tandem WW domains, residues 141–236) (Homo sapiens)
Construct: WW12 141–236, WW12long 141–248, and N-ext-WW12 56–236; 6xHis-TEV site (N, cleaved yes); made in house; host or cells: Escherichia coli BL21(DE3)
experiment_description: ITC of PRPF40A WW12 with GB1-tagged proline-rich peptides and constructs
Type: binding
condition_description: ITC, SF1 peptides, individual value 2 (replicate 2); read-out: Kd Values with WW12, individual value
Measured Kd, listed per entry.
Form entry: value (µM) — number only.

Field: example entries. Status: answers known.
> print(dat)
                           residue.sequence  quantitative.readout
1  MPPFGMPPAPPPPPPQ [SF1_623–638, GB1-tagged 16-mer from the SF1 C-terminal region]                  24.8
2            MPPPPMGMMPPPPPPP [SF1_470–485]                  13.3
3  MQPPPPPMNQGPHPPG [SF1_425–440, GB1-tagged 16-mer from the SF1 C-terminal region]                  21.8
4                PPLPPGAPPPPPPPPP [SF1WWbs]                  1.24
5  MPPPPPPPSGQPPPPP [SF1_478–493, GB1-tagged 16-mer from the SF1 C-terminal region]                  10.3

Here is the next item to consider.
Query string: Give its Kd value. Item: TMVPLPPGVQPPLPPG [SF1_565–580, GB1-tagged 16-mer from the SF1 C-terminal region]
Result string: 37.8

###

assay_system: PRPF40A N-ext-WW12 (residues 56–236) (Homo sapiens, UniProt O75400)
Construct: WW12long 141–248, and N-ext-WW12 56–236; 6xHis-TEV site (N, cleaved yes); made in house; host or cells: Escherichia coli BL21(DE3)
Sequence (O75400 56-236): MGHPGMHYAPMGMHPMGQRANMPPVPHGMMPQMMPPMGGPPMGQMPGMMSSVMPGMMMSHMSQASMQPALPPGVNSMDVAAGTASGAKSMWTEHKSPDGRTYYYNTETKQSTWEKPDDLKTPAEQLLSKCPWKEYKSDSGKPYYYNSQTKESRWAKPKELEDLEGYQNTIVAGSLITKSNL
experiment_description: ITC of N-terminally extended WW12 with SF1 peptides
Type: binding
condition_description: ITC, SF1 peptides, individual value 2 (replicate 2); read-out: Kd Values with Nter Ext WW12, individual value
readout_type: Kd

Query string: Fill in the blank: the reported Kd of PPLPPGAPPPPPPPPP [SF1WWbs] is ____.
Result string: 8.22 µM

###

assay_system: PRPF40A N-ext-WW12 (residues 56–236) (Homo sapiens, UniProt O75400)
Construct: WW12long 141–248, and N-ext-WW12 56–236; 6xHis-TEV site (N, cleaved yes); made in house; host or cells: Escherichia coli BL21(DE3)
experiment_description: ITC of N-terminally extended WW12 with SF1 peptides
Type: binding
condition_description: ITC, 25 °C, 20 mM sodium phosphate pH 6.5, 100 mM NaCl; GB1-tagged SF1 16-mer; N-terminally extended WW12; at least duplicates; listed as 575 PPLPPGAPPPPPPPPP 590; read-out: Kd
Excerpt: PRPF40A isoform 1 sequences (N-ter 1–310, WW12short 141–223, WW12 141–236, WW12long 141–248, and N-ext-WW12 56–236) were amplified from a purchased DNA fragment (IDT) and cloned using NcoI and KpnI restriction sites into a pETM11 vector encoding 6xHis and TEV cleavage site as a N-terminal tag. […]
readout_type: Kd

Query string: Any idea what Kd was measured for PPLPPGAPPPPPPPPP [SF1WWbs] ?
Result string: 8.71 µM

###

Below, each of the substances is paired with its reported DH value.
assay_system: PRPF40A WW12 (tandem WW domains, residues 141–236) (Homo sapiens, UniProt O75400)
Construct: WW12 141–236, WW12long 141–248, and N-ext-WW12 56–236; 6xHis-TEV site (N, cleaved yes); made in house; host or cells: Escherichia coli BL21(DE3)
experiment_description: ITC of PRPF40A WW12 with GB1-tagged proline-rich peptides and constructs
Format: binding
condition_description: ITC binding enthalpy, as E1
No end group written: not given here.
Quick reminder: number only, in kcal/mol, skip the unit.

Query string: So what does the record say about DH for MYAPPPPPPPPMDPSN [SF1_596–611, GB1-tagged 16-mer from the SF1 C-terminal region] ?
Result string: -10.9

Query string: Reported DH for P29: recombinant GB1-tagged polyproline peptide, 29 prolines (GB1-GAMSGSPPPPPPPPPPPPPPPPPPPPPPPPPPPPPSGSN; also: His6 tag state not given here) : what is it?
Result string: -15.8

Query string: For the substance P13: recombinant GB1-tagged polyproline peptide, 13 prolines (GB1-GAMSGSPPPPPPPPPPPPPSGSN; not fully specified) , what DH is on record?
Result string: -15.7

Query string: What does the data say about its DH? Entry: P16: recombinant GB1-tagged polyproline peptide, 16 consecutive proline residues (GB1-GAMSGSPPPPPPPPPPPPPPPPSGSN; also: His6 tag state not given here)
Result string: -15.2

Query string: I have this substance here, TMVPLPPGVQPPLPPG [SF1_565–580, GB1-tagged 16-mer from the SF1 C-terminal region] , and I need its recorded DH.
Result string: -13.5

Query string: Query: DH; subject: MPPFGMPPAPPPPPPQ [SF1_623–638, GB1-tagged 16-mer from the SF1 C-terminal region]
Result string: -10.7

Query string: Quick one: DH of P22: recombinant GB1-tagged polyproline peptide, 22 prolines (GB1-GAMSGSPPPPPPPPPPPPPPPPPPPPPPSGSN; also: His6 tag state not given here) ?
Result string: -18.6

###

assay_system: PRPF40A WW12 (tandem WW domains, residues 141–236) (Homo sapiens)
Construct: WW12 141–236, WW12long 141–248, and N-ext-WW12 56–236; 6xHis-TEV site (N, cleaved yes); made in house; host or cells: Escherichia coli BL21(DE3)
experiment_description: ITC of PRPF40A WW12 with GB1-tagged proline-rich peptides and constructs
Assay type: binding
condition_description: ITC as E1; peptide in the cell, WW tandem in the syringe, N >1 = more than one WW tandem per peptide
Source text: PRPF40A isoform 1 sequences (N-ter 1–310, WW12short 141–223, WW12 141–236, WW12long 141–248, and N-ext-WW12 56–236) were amplified from a purchased DNA fragment (IDT) and cloned using NcoI and KpnI restriction sites into a pETM11 vector encoding 6xHis and TEV cleavage site as a N-terminal tag. […]
No end group written: not given here.
Under this convention, satisfied denotes N (sites) strictly below 1 sites and not satisfied denotes N (sites) at or above 1 sites.

substance	assay_system	label_class
MYAPPPPPPPPMDPSN [SF1_596–611, GB1-tagged 16-mer from the SF1 C-terminal region]	PRPF40A WW12 (tandem WW domains, residues 141–236) (Homo sapiens)	not satisfied
MPPPPPPPSGQPPPPP [SF1_478–493, GB1-tagged 16-mer from the SF1 C-terminal region]	PRPF40A WW12 (tandem WW domains, residues 141–236) (Homo sapiens)	satisfied
P13: recombinant GB1-tagged polyproline peptide, 13 prolines (GB1-GAMSGSPPPPPPPPPPPPPSGSN; not fully specified)	PRPF40A WW12 (tandem WW domains, residues 141–236) (Homo sapiens)	satisfied
P29: recombinant GB1-tagged polyproline peptide, 29 prolines (GB1-GAMSGSPPPPPPPPPPPPPPPPPPPPPPPPPPPPPSGSN; also: His6 tag state not given here)	PRPF40A WW12 (tandem WW domains, residues 141–236) (Homo sapiens)	not satisfied
P10: recombinant GB1-tagged polyproline peptide, 10 prolines (GB1-GAMSGSPPPPPPPPPPSGSN; not fully specified)	PRPF40A WW12 (tandem WW domains, residues 141–236) (Homo sapiens)	satisfied

Query string: Confirm or reject: N (sites) of P19: recombinant GB1-tagged polyproline peptide, 19 prolines (GB1-GAMSGSPPPPPPPPPPPPPPPPPPPSGSN; also: His6 tag state not given here) lies strictly below 1 sites
Result string: not satisfied

Query string: Does the reported N (sites) of the following substance sit strictly below 1 sites? MPPPPMGMMPPPPPPP [SF1_470–485]
Result string: satisfied

Query string: Check if N (sites) falls below 1 sites for TMVPLPPGVQPPLPPG [SF1_565–580, GB1-tagged 16-mer from the SF1 C-terminal region] .
Result string: not satisfied
